Test: Pharmacokinetics after subcutaneous administration to rats
Details: male, Sprague Dawley, rat, plasma, sc, 300 nmol/kg
Numbered stars: 1 amine (or outer) side, 2 acyl side, 3 side chain; on linkers, the order of the positions; unused ones are H or OH. Bridge positions count the residues as written; N and C are the ends. Square brackets hold non-standard residues; d marks the D form. Side chains are listed from the residue outwards. Peptide text beside a SMILES is read from it. * marks the point of attachment. PEG8 = NCCOCCOCCOCCOCCOCCOCCOCCOCCC(=O)O; Palmitoyl = CCCCCCCCCCCCCCCC(=O)*; hCys = N[C@@H](CCS)C(=O)O; X1 = O=C(CC[*:2])[*:1]
Value type: Cmax (nM)
Answer with a number only, understood to be in nM.

Need Cmax, item CCCCCCCCCCCCCCCC(=O)NCCOCCOCCOCCOCCOCCOCCOCCOCCC(=O)NCCCC[C@H](NC(=O)CNC(=O)[C@@H]1CCSCCC(=O)N[C@@H](Cc2ccc(O)cc2)C(=O)N[C@@H]([C@@H](C)CC)C(=O)N[C@@H](CCC(N)=O)C(=O)N[C@@H](CC(N)=O)C(=O)N1)C(=O)NCC(N)=O [ASK2131] (YIQN[hCys]GK([PEG8-Palmitoyl])G-NH2; linker N-5 via X1) 276
